Item-by-item account of MIC
- Test system: Candida albicans
- ASSAY: Antifungal activity against Candida albicans MTCC 183 assessed as growth inhibition after 48 hr by agar streak dilution method
- Type: functional
- RECORDED CONDITIONS: MTCC 183, 48 h
Give the value, in units of µg/mL, as a plain number.

Below, 5 compounds whose answers are already recorded.
| COMPOUND | SUBJECT OF TEST | OUTPUT UNIT | MIC |
| --- | --- | --- | --- |
| CCOc1ccc(NC(=O)CNc2ccc(-c3nc(N4CC(C)CC(C)C4)nc(N4CC(C)CC(C)C4)n3)cc2)cc1 (stereo not drawn) | Candida albicans | µg/mL | 25 |
| CC(=O)Nc1ccc(NC(=O)CNc2ccc(-c3nc(N4CC(C)CC(C)C4)nc(N4CC(C)CC(C)C4)n3)cc2)cc1 (stereo not drawn) | Candida albicans | µg/mL | 50 |
| CC1CC(C)CN(c2nc(-c3ccc(NCC(=O)Nc4nc5ccc(I)cc5s4)cc3)nc(N3CC(C)CC(C)C3)n2)C1 (stereo not drawn) | Candida albicans | µg/mL | 50 |
| CC1CC(C)CN(c2nc(-c3ccc(NCC(=O)Nc4ccc(Br)cc4)cc3)nc(N3CC(C)CC(C)C3)n2)C1 (stereo not drawn) | Candida albicans | µg/mL | 50 |
| CC(=O)Nc1ccc2nc(NC(=O)CNc3ccc(-c4nc(N5CC(C)CC(C)C5)nc(N5CC(C)CC(C)C5)n4)cc3)sc2c1 (stereo not drawn) | Candida albicans | µg/mL | 25 |

Next, consider the following compound.
compound CC1CC(C)CN(c2nc(-c3ccc(NCC(=O)Nc4ccc(F)cc4)cc3)nc(N3CC(C)CC(C)C3)n2)C1 (stereo not drawn) , MIC observed: 50

###

inhibition zone (IZ) listing for selected molecules.
- Tested on: Klebsiella pneumoniae
- ASSAY: Antibacterial activity against Klebsiella pneumoniae MTCC 109 assessed as growth inhibition at 3.12 to 50 ug/mL after 24 hr by agar disk diffusion method
- Type: functional
Answer in mm, number only, no unit symbol.

| MOLECULE | OUTPUT UNIT | inhibition zone (IZ) |
| --- | --- | --- |
| CC1CC(C)CN(c2nc(-c3ccc(NCC(=O)Nc4nc5ccc(Br)cc5s4)cc3)nc(N3CC(C)CC(C)C3)n2)C1 (configuration not stated) | mm | 11 |
| CC1CC(C)CN(c2nc(-c3ccc(NCC(=O)Nc4ccc(C#N)cc4)cc3)nc(N3CC(C)CC(C)C3)n2)C1 (configuration not stated) | mm | 28 |
| CC1CC(C)CN(c2nc(-c3ccc(NCC(=O)Nc4ccc(Cl)cc4)cc3)nc(N3CC(C)CC(C)C3)n2)C1 (configuration not stated) | mm | 21 |

--- query ---
inhibition zone (IZ) for CC1CC(C)CN(c2nc(-c3ccc(NCC(=O)Nc4nc5ccc(Cl)cc5s4)cc3)nc(N3CC(C)CC(C)C3)n2)C1 (configuration not stated) is 23

###

Measured MIC accompanies every entry in the list below.
- Tested on: Candida albicans
- ASSAY: Antifungal activity against Candida albicans MTCC 183 assessed as growth inhibition after 48 hr by agar streak dilution method
- Type: functional
- RECORDED CONDITIONS: MTCC 183, 48 h
Output spec: scalar in µg/mL, unitless text.

| COMPOUND | OUTPUT UNIT | MIC |
| --- | --- | --- |
| CC1CC(C)CN(c2nc(-c3ccc(NCC(=O)Nc4ccc([N+](=O)[O-])cc4)cc3)nc(N3CC(C)CC(C)C3)n2)C1 (configuration not stated) | µg/mL | 50 |

The compound CC1CC(C)CN(c2nc(-c3ccc(NCC(=O)Nc4nc5ccc([N+](=O)[O-])cc5s4)cc3)nc(N3CC(C)CC(C)C3)n2)C1 (configuration not stated) , when measured on Candida albicans, yielded MIC of 50

MIC for Candida albicans with input CC1CC(C)CN(c2nc(-c3ccc(NCC(=O)Nc4nc5ccc(F)cc5s4)cc3)nc(N3CC(C)CC(C)C3)n2)C1 (configuration not stated) equals 50

Tested on Candida albicans: COc1ccc2nc(NC(=O)CNc3ccc(-c4nc(N5CC(C)CC(C)C5)nc(N5CC(C)CC(C)C5)n4)cc3)sc2c1 (configuration not stated) . Observed MIC: 12.5

# credit: ChEMBL document CHEMBL3046161
